B1: 1-phosphatidylinositol 4,5-bisphosphate phosphodiesterase gamma-2, residues 772 to 827; numbered along this chain, P16885 (parent)
chain: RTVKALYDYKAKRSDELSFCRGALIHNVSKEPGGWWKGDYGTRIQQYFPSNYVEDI

Variants of: B1
Assay: abundance fitness (aPCA) (normalised: wild type 0, dead -1); higher = more abundant; growth selection in yeast, the domain comes from the species named
Conditions: Homo sapiens
Decision: abundance fitness compared against -0.2; not below it gives satisfied, below it gives not satisfied.

Does the reported abundance fitness for R13E fall at or above the -0.2 mark?
not satisfied

Continue with E54Q
not satisfied

Request: I44S
not satisfied

// query: A11R
not satisfied

Same read-out for S29F ?
satisfied

What about this variant? E31F
satisfied

Now the variant H26K
not satisfied

What do we get for P32Y ?
not satisfied

Would you mind doing W35F as well?
satisfied

Lookup G22M
not satisfied

Same thing, different variant: R13Y
satisfied

# iterate: K12T
satisfied

Please give the result for E16L too.
not satisfied

D39P , same question.
not satisfied

Consider next the variant D8M in the same way.
not satisfied

Also need D55P , thanks.
satisfied

What do you get for R21L ?
not satisfied

How about this variant: R43D
not satisfied

Likewise for W35P ?
not satisfied

Next entry: G33L
not satisfied

// repeat for T42M and report
satisfied

What do you get for R13W ?
not satisfied

Next record, please: Y9W
not satisfied

How about L24N ?
not satisfied

Let us now turn to Y40I
satisfied

Now the variant D15P
not satisfied

Now give it for L6I too.
satisfied

Lookup P32K
not satisfied

Request: S50C
satisfied

Another: Y40K
satisfied

Field entry: Y40E
not satisfied

Also N51F , if possible.
not satisfied

One more variant: G34M
satisfied

Again, but for V28M
not satisfied

Same question, D15H this time
not satisfied

Now give it for R13D too.
not satisfied

Query G41Y next
not satisfied

Ok, now Y7H
satisfied

Source of measurements: the Human Domainome abundance scans (Beltran et al. 2025)
